SYSTEM_NAME: UniProtKB P10275
Sequence (P10275 whole entry): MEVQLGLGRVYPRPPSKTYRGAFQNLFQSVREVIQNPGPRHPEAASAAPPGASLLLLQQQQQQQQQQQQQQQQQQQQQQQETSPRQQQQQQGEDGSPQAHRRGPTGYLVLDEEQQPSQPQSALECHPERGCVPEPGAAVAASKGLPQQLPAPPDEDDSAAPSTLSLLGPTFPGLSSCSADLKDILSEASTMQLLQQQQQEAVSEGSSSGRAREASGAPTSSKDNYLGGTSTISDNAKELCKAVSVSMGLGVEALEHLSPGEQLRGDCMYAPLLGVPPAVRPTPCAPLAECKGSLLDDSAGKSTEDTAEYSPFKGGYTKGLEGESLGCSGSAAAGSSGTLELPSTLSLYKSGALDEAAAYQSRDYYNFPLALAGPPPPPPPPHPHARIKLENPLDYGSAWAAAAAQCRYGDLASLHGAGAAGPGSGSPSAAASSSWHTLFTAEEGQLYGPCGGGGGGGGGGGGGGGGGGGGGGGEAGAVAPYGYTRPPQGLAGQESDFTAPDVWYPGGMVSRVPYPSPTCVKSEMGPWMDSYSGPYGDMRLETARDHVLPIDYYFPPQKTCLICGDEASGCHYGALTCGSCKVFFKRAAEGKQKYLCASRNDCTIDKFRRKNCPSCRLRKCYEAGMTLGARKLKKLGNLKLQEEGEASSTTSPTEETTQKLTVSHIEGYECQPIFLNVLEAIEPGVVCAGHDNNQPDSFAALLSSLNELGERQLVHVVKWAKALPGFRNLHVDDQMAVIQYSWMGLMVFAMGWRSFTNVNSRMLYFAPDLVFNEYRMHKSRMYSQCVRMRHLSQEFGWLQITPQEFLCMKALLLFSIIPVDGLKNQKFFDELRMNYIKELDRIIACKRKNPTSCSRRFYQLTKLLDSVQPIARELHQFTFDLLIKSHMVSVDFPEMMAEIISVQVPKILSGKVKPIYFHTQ
TEST_PROTOCOL: Antagonist activity at full length human androgen receptor expressed in mammalian expression system measured after 22 to 24 hrs by luciferase reporter gene assay
pEC50 values for the molecules below.
When answering, recall that pEC50 equals minus log10 of the concentration in mol/L, and write that number alone.

As a guide, the following entries are already answered.
{"columns": ["MOLECULE", "SYSTEM_NAME", "QUANTITY_MEASURED", "TEST_VALUE"],
 "data": [
  ["N=C(NCCCOc1ccc(F)cc1)Nc1ccc(Cl)cc1", "UniProtKB P10275", "pEC50", 4.90],
  ["CC(=O)O[C@H]1CC[C@@]2(C)C(=CC[C@@H]3[C@@H]2CC[C@]2(C)C(c4cccnc4)=CC[C@@H]32)C1 [ABIRATERONE ACETATE]", "UniProtKB P10275", "pEC50", 4.77]
]}

// below: pEC50 requested for another molecule
IN: If you can, please state the reported pEC50 value of "COc1ccc(NC(=N)NCCCOc2ccc(F)cc2)cc1" .
OUT: 4.55
